- Tested on: GLXMA
- test-method-notes: Pre-emergence effects on crop plants (Table D4)
- Type: in vivo, Glycine max
- experimental-parameters: crop plant; application rate 320 g/ha; visual grading after ca. 3 weeks
property-label: pre-emergence activity against GLXMA (%)

{"molecule": "Cc1ccccc1CN1CCCC2(CCCN(Cc3ccccc3F)C2=O)C1=O (racemic)", "assay-target": "GLXMA", "unit-of-measure": "%", "reported-measurement": 0}
{"molecule": "O=C1N(Cc2cc(F)ccc2F)CCCC12CCCN(Cc1cc(F)ccc1F)C2=O (racemic)", "assay-target": "GLXMA", "unit-of-measure": "%", "reported-measurement": 20}
{"molecule": "O=C1N(Cc2c(F)cccc2F)CCCC12CCN(Cc1c(F)cccc1F)C2=O (racemic)", "assay-target": "GLXMA", "unit-of-measure": "%", "reported-measurement": 20}
{"molecule": "O=C1N(Cc2ccc(F)cc2F)CCCC12CCCN(Cc1ccc(F)cc1F)C2=O (racemic)", "assay-target": "GLXMA", "unit-of-measure": "%", "reported-measurement": 10}
{"molecule": "COc1ccccc1CN1CCCC2(CCCN(Cc3ccccc3F)C2=O)C1=O (racemic)", "assay-target": "GLXMA", "unit-of-measure": "%", "reported-measurement": 0}
{"molecule": "O=C1N(Cc2ccccc2Cl)CCC12CCCN(Cc1c(F)cccc1F)C2=O (racemic)", "assay-target": "GLXMA", "unit-of-measure": "%", "reported-measurement": 0}
{"molecule": "CC(c1c(F)cccc1F)N1CCCC2(CCCN(C(C)c3c(F)cccc3F)C2=O)C1=O (stereo not drawn)", "assay-target": "GLXMA", "unit-of-measure": "%", "reported-measurement": 0}
{"molecule": "O=C1N(Cc2ccccc2F)CCC12CCCN(Cc1c(F)cccc1F)C2=O (racemic)", "assay-target": "GLXMA", "unit-of-measure": "%", "reported-measurement": 0}
{"molecule": "O=C1N(Cc2ccccc2Br)CCCC12CCCN(Cc1c(F)cccc1F)C2=O (racemic)", "assay-target": "GLXMA", "unit-of-measure": "%", "reported-measurement": 0}
{"molecule": "O=C1N(Cc2c(F)cccc2Cl)CCCC12CCCN(Cc1c(F)cccc1Cl)C2=O (racemic)", "assay-target": "GLXMA", "unit-of-measure": "%", "reported-measurement": 0}
{"molecule": "CC(c1ccccc1F)N1CCCC2(CCCN(C(C)c3ccccc3F)C2=O)C1=O (stereo not drawn)", "assay-target": "GLXMA", "unit-of-measure": "%", "reported-measurement": 10}
{"molecule": "O=C1N(Cc2c(F)ccc(F)c2F)CCCC12CCCN(Cc1c(F)ccc(F)c1F)C2=O (racemic)", "assay-target": "GLXMA", "unit-of-measure": "%", "reported-measurement": 0}
